Assign relative viability to each entry below.
- Test system: NCI-H661
- testName: relative viability (nuclei count vs DMSO), 5 days (fraction); higher = more cells survive
- measurementSetup: first compound 0.04 µM
Numbers only.

Worked examples, 5 compounds total:
compound	testedOn	relative viability
Clc1ccc(Nc2nnc(Cc3ccncc3)c3ccccc23)cc1 [Vatalanib] + Nc1nc2[nH]cc(CCc3ccc(C(=O)N[C@@H](CCC(=O)O)C(=O)O)cc3)c2c(=O)[nH]1 [Pemetrexed] (partner 0.2 µM)	NCI-H661	0.868
Clc1ccc(Nc2nnc(Cc3ccncc3)c3ccccc23)cc1 [Vatalanib] + COc1cccc2cc(-c3nc([C@H]4CC[C@H](C(=O)O)CC4)n4ncnc(N)c34)[nH]c12 [OSI-027] (partner 0.5 µM)	NCI-H661	0.737
C[C@@H]1CN(CC(=O)Nc2ccc3c(c2)Cc2cccc(-c4cc(=O)cc(N5CCOCC5)o4)c2S3)C[C@H](C)O1 + COc1cccc2cc(-c3nc([C@H]4CC[C@H](C(=O)O)CC4)n4ncnc(N)c34)[nH]c12 [OSI-027] (partner 0.5 µM)	NCI-H661	0.694
Clc1ccc(Nc2nnc(Cc3ccncc3)c3ccccc23)cc1 [Vatalanib] + Nc1ncn([C@H]2C[C@H](O)[C@@H](CO)O2)c(=O)n1 [Decitabine] (partner 2 µM)	NCI-H661	0.584
C[C@@H]1CN(CC(=O)Nc2ccc3c(c2)Cc2cccc(-c4cc(=O)cc(N5CCOCC5)o4)c2S3)C[C@H](C)O1 + O=C(CCCCCCC(=O)Nc1ccccc1)NO [Vorinostat] (partner 1 µM)	NCI-H661	0.689

I have 8 compounds here; please give me relative viability for each one.
1. COc1cc(N2CCC(C(N)=O)CC2)ccc1Nc1nc(N)c(Cl)c(Nc2ccccc2S(=O)(=O)C(C)C)n1 [HG-5-88-01] + CS(=O)(=O)N1CCN(Cc2cc3nc(-c4cccc5[nH]ncc45)nc(N4CCOCC4)c3s2)CC1 [Pictilisib] (partner 1 µM)
2. Clc1ccc(Nc2nnc(Cc3ccncc3)c3ccccc23)cc1 [Vatalanib] + O=C(c1cc(Cc2n[nH]c(=O)c3ccccc23)ccc1F)N1CCN(C(=O)C2CC2)CC1 [Olaparib] (partner 8 µM)
3. COc1cc(N2CCC(C(N)=O)CC2)ccc1Nc1nc(N)c(Cl)c(Nc2ccccc2S(=O)(=O)C(C)C)n1 [HG-5-88-01] + COc1cc2c(Oc3ccc(NC(=O)C4(C(=O)Nc5ccc(F)cc5)CC4)cc3F)ccnc2cc1OCCCN1CCOCC1 [Foretinib] (partner 0.25 µM)
4. Clc1ccc(Nc2nnc(Cc3ccncc3)c3ccccc23)cc1 [Vatalanib] + Cc1nc(NC(=O)N2CCC[C@H]2C(N)=O)sc1-c1ccnc(C(C)(C)C(F)(F)F)c1 [Alpelisib] (partner 2 µM)
5. COc1cc(N2CCC(C(N)=O)CC2)ccc1Nc1nc(N)c(Cl)c(Nc2ccccc2S(=O)(=O)C(C)C)n1 [HG-5-88-01] + CC(C)C[C@H](NC(=O)[C@H](Cc1ccccc1)NC(=O)c1cnccn1)B(O)O [Bortezomib] (partner 0.002 µM)
6. Clc1ccc(Nc2nnc(Cc3ccncc3)c3ccccc23)cc1 [Vatalanib] + Cc1cc(Nc2cc(N3CCN(C)CC3)nc(Sc3ccc(NC(=O)C4CC4)cc3)n2)n[nH]1 [Tozasertib] (partner 0.1 µM)
7. C[C@@H]1CN(CC(=O)Nc2ccc3c(c2)Cc2cccc(-c4cc(=O)cc(N5CCOCC5)o4)c2S3)C[C@H](C)O1 + Cc1cc(Nc2cc(N3CCN(C)CC3)nc(Sc3ccc(NC(=O)C4CC4)cc3)n2)n[nH]1 [Tozasertib] (partner 0.1 µM)
8. Clc1ccc(Nc2nnc(Cc3ccncc3)c3ccccc23)cc1 [Vatalanib] + Cc1nc(Nc2ncc(C(=O)Nc3c(C)cccc3Cl)s2)cc(N2CCN(CCO)CC2)n1 [Dasatinib] (partner 0.075 µM)

a:
[0.43, 0.769, 1.01, 0.617, 0.838, 0.357, 0.345, 0.935]

I have 3 compounds here; please give me relative viability for each one.
1. COc1cc(N2CCC(C(N)=O)CC2)ccc1Nc1nc(N)c(Cl)c(Nc2ccccc2S(=O)(=O)C(C)C)n1 [HG-5-88-01] + CCNC(=O)c1noc(-c2cc(C(C)C)c(O)cc2O)c1-c1ccc(CN2CCOCC2)cc1 [Luminespib] (partner 0.01 µM)
2. Clc1ccc(Nc2nnc(Cc3ccncc3)c3ccccc23)cc1 [Vatalanib] + CS(=O)(=O)N1CCN(Cc2cc3nc(-c4cccc5[nH]ncc45)nc(N4CCOCC4)c3s2)CC1 [Pictilisib] (partner 1 µM)
3. COc1cc(N2CCC(C(N)=O)CC2)ccc1Nc1nc(N)c(Cl)c(Nc2ccccc2S(=O)(=O)C(C)C)n1 [HG-5-88-01] + Nc1ncn([C@H]2C[C@H](O)[C@@H](CO)O2)c(=O)n1 [Decitabine] (partner 2 µM)

a:
0.938
0.345
0.54
